Listing of recorded IC50 by entry.
# ASSAY_SYSTEM: TIE‐2 (Homo sapiens)
# Sequence (Q02763 23-1124): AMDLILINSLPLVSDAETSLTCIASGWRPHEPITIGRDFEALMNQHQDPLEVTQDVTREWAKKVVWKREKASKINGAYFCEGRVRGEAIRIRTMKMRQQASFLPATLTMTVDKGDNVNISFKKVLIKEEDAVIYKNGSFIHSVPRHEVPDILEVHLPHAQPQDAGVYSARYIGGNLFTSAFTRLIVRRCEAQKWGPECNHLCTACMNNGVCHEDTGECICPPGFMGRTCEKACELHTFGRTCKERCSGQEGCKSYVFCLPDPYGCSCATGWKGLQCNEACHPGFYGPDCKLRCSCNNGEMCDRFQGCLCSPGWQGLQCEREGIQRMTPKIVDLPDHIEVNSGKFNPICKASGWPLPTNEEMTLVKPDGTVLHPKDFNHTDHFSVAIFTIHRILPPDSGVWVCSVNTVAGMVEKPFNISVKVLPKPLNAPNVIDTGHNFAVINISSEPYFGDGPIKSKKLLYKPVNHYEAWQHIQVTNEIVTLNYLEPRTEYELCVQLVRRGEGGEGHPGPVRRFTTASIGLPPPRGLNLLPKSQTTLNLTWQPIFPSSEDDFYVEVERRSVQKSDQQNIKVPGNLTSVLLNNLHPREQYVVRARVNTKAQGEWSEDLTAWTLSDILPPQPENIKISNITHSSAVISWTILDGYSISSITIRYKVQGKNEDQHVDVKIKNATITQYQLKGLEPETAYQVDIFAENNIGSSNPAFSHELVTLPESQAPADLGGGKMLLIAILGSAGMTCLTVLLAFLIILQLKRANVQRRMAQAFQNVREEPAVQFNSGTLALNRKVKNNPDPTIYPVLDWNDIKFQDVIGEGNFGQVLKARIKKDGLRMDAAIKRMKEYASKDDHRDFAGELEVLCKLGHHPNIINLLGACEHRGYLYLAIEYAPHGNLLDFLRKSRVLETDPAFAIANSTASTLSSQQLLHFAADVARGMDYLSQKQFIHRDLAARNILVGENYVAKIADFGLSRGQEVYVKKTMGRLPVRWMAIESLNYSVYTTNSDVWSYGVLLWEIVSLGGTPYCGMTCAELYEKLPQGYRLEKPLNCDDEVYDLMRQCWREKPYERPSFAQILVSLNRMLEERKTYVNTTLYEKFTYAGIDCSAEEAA
# PROTOCOL_TEXT: Cellular kinase phosphorylation assay, CHO/TIE2
# SETUP_CONDITIONS: CHO/TIE2 cells; without serum; brackets = number of experiments; read-out: Mean ± SD IC50
Report the figure in nM without appending any unit label.

>>> print(df.to_string())
                               entry_smiles          assay_system  measured_quantity  numeric_value
0  CNC(=O)c1cc(Oc2ccc(NC(=O)Nc3ccc(Cl)c(C(F)(F)F)c3)c(F)c2)cc[n+]1[O-]  TIE‐2 (Homo sapiens)               IC50             66

Let's switch to this molecule now.
// returns reported IC50 for input NC(=O)c1cc(Oc2ccc(NC(=O)Nc3ccc(Cl)c(C(F)(F)F)c3)c(F)c2)cc[n+]1[O-]
180

---

Listed below: Kd values for each entry.
# ASSAY_SYSTEM: FLT4 (Homo sapiens, UniProt P35916)
# Sequence (P35916 25-1363): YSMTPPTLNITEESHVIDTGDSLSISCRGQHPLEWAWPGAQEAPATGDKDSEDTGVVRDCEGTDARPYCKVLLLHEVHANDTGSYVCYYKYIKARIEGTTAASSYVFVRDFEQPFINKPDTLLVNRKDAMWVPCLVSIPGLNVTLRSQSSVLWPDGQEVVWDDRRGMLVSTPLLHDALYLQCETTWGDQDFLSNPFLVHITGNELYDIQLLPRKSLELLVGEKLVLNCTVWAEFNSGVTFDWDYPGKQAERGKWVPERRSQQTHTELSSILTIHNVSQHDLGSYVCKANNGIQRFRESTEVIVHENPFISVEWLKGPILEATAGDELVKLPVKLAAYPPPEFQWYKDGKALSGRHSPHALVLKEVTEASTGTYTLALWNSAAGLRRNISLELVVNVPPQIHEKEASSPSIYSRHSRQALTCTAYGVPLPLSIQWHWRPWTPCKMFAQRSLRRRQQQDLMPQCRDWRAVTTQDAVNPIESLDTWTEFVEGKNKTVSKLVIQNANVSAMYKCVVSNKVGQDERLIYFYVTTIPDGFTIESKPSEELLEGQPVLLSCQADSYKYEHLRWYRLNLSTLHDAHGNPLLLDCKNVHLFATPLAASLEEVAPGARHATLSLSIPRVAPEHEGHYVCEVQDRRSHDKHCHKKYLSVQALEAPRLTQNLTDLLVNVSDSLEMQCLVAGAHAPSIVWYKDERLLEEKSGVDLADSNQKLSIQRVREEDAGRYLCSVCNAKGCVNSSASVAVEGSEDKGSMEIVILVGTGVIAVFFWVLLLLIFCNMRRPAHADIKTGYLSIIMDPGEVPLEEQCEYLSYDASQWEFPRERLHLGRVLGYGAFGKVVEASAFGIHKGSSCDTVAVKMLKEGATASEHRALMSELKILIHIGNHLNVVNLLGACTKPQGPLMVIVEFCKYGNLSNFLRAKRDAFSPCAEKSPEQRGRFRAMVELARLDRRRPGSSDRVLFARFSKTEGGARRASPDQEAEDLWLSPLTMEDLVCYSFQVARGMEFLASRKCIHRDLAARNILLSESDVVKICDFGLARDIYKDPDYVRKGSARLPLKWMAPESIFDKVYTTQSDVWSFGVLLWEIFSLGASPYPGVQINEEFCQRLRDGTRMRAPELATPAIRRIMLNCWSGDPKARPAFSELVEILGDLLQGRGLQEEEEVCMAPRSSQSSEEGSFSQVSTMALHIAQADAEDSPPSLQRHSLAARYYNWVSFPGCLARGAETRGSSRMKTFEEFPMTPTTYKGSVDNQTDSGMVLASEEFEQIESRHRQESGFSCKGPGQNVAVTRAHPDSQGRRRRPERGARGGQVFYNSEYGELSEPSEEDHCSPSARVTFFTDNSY
# PROTOCOL_TEXT: KINOMEscan active-site competitive binding assay
# SETUP_CONDITIONS: slash = two separate measurements
Express the result in nM but write the number alone.

>>> df
                               entry_smiles  measured_quantity  numeric_value
0  CNC(=O)c1cc(Oc2ccc(NC(=O)Nc3ccc(Cl)c(C(F)(F)F)c3)c(F)c2)cc[n+]1[O-]                 Kd             46

Notebook: pull reported Kd for FLT4 (Homo sapiens, UniProt P35916), entry NC(=O)c1cc(Oc2ccc(NC(=O)Nc3ccc(Cl)c(C(F)(F)F)c3)c(F)c2)cc[n+]1[O-]
40

---

# ASSAY_SYSTEM: KIT^A829P (Homo sapiens, UniProt P10721, A829P)
# Sequence (P10721 26-976 A829P): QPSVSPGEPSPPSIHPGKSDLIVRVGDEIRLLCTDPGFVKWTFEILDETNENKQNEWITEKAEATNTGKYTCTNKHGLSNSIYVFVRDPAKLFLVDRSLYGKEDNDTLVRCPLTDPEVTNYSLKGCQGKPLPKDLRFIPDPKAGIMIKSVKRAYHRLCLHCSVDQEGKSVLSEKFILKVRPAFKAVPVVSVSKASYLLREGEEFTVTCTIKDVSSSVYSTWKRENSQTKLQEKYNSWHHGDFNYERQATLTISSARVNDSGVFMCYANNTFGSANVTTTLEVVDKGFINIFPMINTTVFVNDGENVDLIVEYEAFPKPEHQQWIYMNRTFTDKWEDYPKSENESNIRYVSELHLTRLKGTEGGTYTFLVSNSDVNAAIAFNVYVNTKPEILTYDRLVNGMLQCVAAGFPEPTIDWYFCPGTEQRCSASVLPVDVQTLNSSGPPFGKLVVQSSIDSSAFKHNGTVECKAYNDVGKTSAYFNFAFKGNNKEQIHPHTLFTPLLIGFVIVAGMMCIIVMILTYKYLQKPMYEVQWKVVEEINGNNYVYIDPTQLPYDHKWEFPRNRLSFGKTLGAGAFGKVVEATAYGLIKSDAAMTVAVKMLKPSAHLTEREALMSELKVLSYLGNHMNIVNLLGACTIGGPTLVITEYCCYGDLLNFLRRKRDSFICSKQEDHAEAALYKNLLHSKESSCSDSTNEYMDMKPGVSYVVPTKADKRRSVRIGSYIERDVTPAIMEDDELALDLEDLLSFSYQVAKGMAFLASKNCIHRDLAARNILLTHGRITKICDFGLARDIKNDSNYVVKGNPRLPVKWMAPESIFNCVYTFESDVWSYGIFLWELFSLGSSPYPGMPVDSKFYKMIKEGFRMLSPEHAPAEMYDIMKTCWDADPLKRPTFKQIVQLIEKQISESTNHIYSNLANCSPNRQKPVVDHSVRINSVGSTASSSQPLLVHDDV
# PROTOCOL_TEXT: KINOMEscan active-site competitive binding assay
MEASURED_QUANTITY: Kd (µM)
Quick note: give the figure in µM, leave out the unit.

>>> df
                               entry_smiles  measured_quantity  unit_abbrev  numeric_value
0  CNC(=O)c1cc(Oc2ccc(NC(=O)Nc3ccc(Cl)c(C(F)(F)F)c3)c(F)c2)cc[n+]1[O-]                 Kd           µM          0.019

Here is another compound to look at.
Field request: Kd | item: NC(=O)c1cc(Oc2ccc(NC(=O)Nc3ccc(Cl)c(C(F)(F)F)c3)c(F)c2)cc[n+]1[O-]
0.019

---

# ASSAY_SYSTEM: PDGFRB (Homo sapiens)
# Sequence (P09619 33-1106): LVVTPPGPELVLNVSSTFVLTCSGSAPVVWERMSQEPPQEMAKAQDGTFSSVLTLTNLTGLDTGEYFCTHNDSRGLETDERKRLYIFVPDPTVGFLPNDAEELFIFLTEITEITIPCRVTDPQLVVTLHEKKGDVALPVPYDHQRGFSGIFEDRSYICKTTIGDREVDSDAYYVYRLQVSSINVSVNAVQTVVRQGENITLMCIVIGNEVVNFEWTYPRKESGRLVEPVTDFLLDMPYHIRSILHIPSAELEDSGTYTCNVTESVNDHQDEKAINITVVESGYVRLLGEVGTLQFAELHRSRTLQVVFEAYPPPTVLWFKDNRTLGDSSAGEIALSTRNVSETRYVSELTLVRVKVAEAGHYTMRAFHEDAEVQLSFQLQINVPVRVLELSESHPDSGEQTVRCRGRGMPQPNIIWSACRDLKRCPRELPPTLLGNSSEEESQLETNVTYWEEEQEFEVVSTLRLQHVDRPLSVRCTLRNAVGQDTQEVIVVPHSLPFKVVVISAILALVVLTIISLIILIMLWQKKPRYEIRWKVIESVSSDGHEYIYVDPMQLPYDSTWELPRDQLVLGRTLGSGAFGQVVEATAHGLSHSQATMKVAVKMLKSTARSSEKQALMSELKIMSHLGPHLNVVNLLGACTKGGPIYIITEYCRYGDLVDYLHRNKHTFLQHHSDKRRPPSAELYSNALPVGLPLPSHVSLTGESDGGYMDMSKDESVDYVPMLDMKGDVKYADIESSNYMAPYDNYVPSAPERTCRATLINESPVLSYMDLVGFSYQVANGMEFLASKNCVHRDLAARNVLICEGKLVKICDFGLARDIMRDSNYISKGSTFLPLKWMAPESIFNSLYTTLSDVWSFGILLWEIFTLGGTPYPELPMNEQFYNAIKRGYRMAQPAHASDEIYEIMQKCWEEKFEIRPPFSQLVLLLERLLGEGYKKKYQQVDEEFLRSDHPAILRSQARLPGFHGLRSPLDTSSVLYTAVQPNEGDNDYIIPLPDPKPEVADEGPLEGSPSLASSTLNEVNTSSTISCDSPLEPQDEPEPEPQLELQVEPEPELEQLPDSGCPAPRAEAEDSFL
# PROTOCOL_TEXT: KINOMEscan active-site competitive binding assay
# SETUP_CONDITIONS: slash = two separate measurements
MEASURED_QUANTITY: pKd
The read-out pKd is expressed as -log10 of concentration in moles per litre.

                               entry_smiles  numeric_value
0  NC(=O)c1cc(Oc2ccc(NC(=O)Nc3ccc(Cl)c(C(F)(F)F)c3)c(F)c2)cc[n+]1[O-]           7.96

Now let's try a different one.
Give pKd (PDGFRB (Homo sapiens)) of the following compound: CNC(=O)c1cc(Oc2ccc(NC(=O)Nc3ccc(Cl)c(C(F)(F)F)c3)c(F)c2)cc[n+]1[O-]
7.96
